# Target desc: BuChE (E.C. 3.1.1.8) (Equus caballus, UniProt P81908)
# Sequence (P81908 whole entry): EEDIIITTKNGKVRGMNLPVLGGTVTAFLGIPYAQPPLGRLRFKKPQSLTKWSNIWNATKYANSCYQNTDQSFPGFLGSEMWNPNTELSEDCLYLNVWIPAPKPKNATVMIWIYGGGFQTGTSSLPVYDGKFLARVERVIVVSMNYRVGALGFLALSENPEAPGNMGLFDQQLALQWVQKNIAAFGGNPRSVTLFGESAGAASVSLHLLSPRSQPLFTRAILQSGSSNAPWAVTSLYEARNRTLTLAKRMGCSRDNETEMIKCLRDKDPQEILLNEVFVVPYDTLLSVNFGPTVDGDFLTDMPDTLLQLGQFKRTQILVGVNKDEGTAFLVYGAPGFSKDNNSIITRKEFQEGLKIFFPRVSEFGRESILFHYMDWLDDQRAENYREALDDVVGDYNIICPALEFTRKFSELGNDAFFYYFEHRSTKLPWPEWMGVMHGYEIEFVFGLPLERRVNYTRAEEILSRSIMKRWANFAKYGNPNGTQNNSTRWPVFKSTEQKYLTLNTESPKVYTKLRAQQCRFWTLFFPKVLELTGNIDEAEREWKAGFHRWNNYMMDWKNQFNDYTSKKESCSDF
# Measurement notes: biochemical
# Run conditions: means ± SEM of three experiments; pH 8.0, 37 °C, 15 min incubation; read-out: BuChE Inhibition (IC50)
# Method: The inhibitory activity of the synthesized graveoline analogs on cholinesterase in vitro was studied using the Ellman method. Stock solutions of all graveoline analogs (10 mM) were prepared using DMSO and stored at −80 °C. Further dilutions to working concentrations were made with double-distilled deionized water. […]
pIC50: −log10 of the molar value.
In this section we review reported pIC50 values for a set of compounds.

| Structure notation | Target desc | pIC50 |
| --- | --- | --- |
| CN(C)CCNCc1ccc(-c2cc(=O)c3ccccc3n2C)cc1 | BuChE (E.C. 3.1.1.8) (Equus caballus, UniProt P81908) | 5.45 |
| CN(C)CCCNCc1ccc(-c2cc(=O)c3ccccc3n2C)cc1 | BuChE (E.C. 3.1.1.8) (Equus caballus, UniProt P81908) | 5.57 |
| Cn1c(-c2ccc(CNCCN3CCCC3)cc2)cc(=O)c2ccccc21 | BuChE (E.C. 3.1.1.8) (Equus caballus, UniProt P81908) | 5.61 |
| Cn1c(-c2ccc(CNCCN3CCCCC3)cc2)cc(=O)c2ccccc21 | BuChE (E.C. 3.1.1.8) (Equus caballus, UniProt P81908) | 5.81 |
| CN(C)CCCCNCc1ccc(-c2cc(=O)c3ccccc3n2C)cc1 | BuChE (E.C. 3.1.1.8) (Equus caballus, UniProt P81908) | 5.43 |

This collection of values is drawn from paper PMC6273267.
